List of self-cleavage values.
B1: LINE1-mini (parent)
chain: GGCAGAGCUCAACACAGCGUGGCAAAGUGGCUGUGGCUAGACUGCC

- Variants of: B1
- Experimental protocol: self-cleavage, relative activity (ratio to wild type); higher = more cleavage; in vitro, sequencing; the parent is a self-cleaving ribozyme
Observable: self-cleavage

* A26U G29A | 1.35
* C23A A24C | 0.85
* G1A U28G | 0.6
* U9C C23A | 0.02
* A16G C23G | 0.64
* A12G | 0.04
* G17A G22A | 0.32
* C18U A26C | 1.39
* G36U C37A | 0.05
* G2C U43A | 0.04
* G30U G36U | 0.05
* G1C G36C | 0.01
* G17C C37U | 0.08
* A12U G30C | 0.46
* G1U G44U | 0.15
* G35A C45A | 0.13
* G33C A39C | 0.09
* A24G C45G | 0.22
* A12U G19U | 0.19
* C10A C46G | 0.04
* U43C C46A | 0.11
* C18U G36A | 0.15
